# maps each entry to its Activity
System: Mus musculus
Assay: Antinociceptive activity in mouse assessed as jumping or licking of paw behavior at 10 mg/kg, sc after 5 mins by hot-plate test
Format: functional
measurement_kind: Activity

>  <molecule>
c1cc(-c2cncc([C@H]3C[C@H]4CC[C@H]3N4)c2)ccn1 (racemic)

>  <observed_result>
4%

$$$$
>  <molecule>
Clc1cc(-c2cncc([C@H]3C[C@H]4CC[C@H]3N4)c2)ccn1 (racemic)

>  <observed_result>
30%

$$$$
>  <molecule>
Fc1cc(-c2cncc([C@H]3C[C@H]4CC[C@H]3N4)c2)ccn1 (racemic)

>  <observed_result>
34%

$$$$
>  <molecule>
Nc1cc(-c2cncc([C@H]3C[C@H]4CC[C@H]3N4)c2)ccn1 (racemic)

>  <observed_result>
5%

$$$$
>  <molecule>
Fc1ccc(-c2cncc([C@H]3C[C@H]4CC[C@H]3N4)c2)cn1 (racemic)

>  <observed_result>
10%

$$$$
>  <molecule>
c1cncc(-c2cncc([C@H]3C[C@H]4CC[C@H]3N4)c2)c1 (racemic)

>  <observed_result>
14%

$$$$
>  <molecule>
COc1cc(-c2cncc([C@H]3C[C@H]4CC[C@H]3N4)c2)ccn1 (racemic)

>  <observed_result>
50%

$$$$
>  <molecule>
c1cnc2cc3c(cc2n1)[C@@H]1CNC[C@H]3C1 [VARENICLINE]

>  <observed_result>
10%

$$$$
>  <molecule>
COc1ccc(-c2cncc([C@H]3C[C@H]4CC[C@H]3N4)c2)cn1 (racemic)

>  <observed_result>
17%

$$$$
>  <molecule>
Nc1ccc(-c2cncc([C@H]3C[C@H]4CC[C@H]3N4)c2)cn1 (racemic)

>  <observed_result>
14%

$$$$
>  <molecule>
Clc1ccc(-c2cncc([C@H]3C[C@H]4CC[C@H]3N4)c2)cn1 (racemic)

>  <observed_result>
17%

$$$$
